- TEST SYSTEM: recombinant soluble homotrimeric HA of A/Japan/305/57 (H2N2) (Influenza A virus A/Japan/305/1957 (H2N2))
- PROTOCOL DESCRIPTION: HA microarray, BCC supernatant
- RECORDED CONDITIONS: remark: other sources report otherwise
Entries and their Trimeric HA Binding RLU values follow.
Please respond with the number in RLU and leave the unit unwritten.

Consider the worked cases shown below.
| BINDER | MEASURED RESULT |
| --- | --- |
| TCN-557 (5081_A04) (antibody, V domains shown) VH: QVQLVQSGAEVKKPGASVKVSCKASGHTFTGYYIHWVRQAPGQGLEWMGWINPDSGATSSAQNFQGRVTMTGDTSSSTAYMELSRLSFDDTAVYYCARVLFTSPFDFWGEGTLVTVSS VL: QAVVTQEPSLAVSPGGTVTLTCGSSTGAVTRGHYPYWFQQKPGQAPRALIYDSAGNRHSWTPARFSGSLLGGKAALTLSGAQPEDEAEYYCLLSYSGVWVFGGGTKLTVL | 43400 |
| TCN-532 (5262_H18) (antibody, V domains shown) VH: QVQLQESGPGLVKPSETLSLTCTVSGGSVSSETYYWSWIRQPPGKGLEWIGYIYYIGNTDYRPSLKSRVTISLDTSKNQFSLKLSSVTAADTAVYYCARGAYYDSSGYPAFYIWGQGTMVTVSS VL: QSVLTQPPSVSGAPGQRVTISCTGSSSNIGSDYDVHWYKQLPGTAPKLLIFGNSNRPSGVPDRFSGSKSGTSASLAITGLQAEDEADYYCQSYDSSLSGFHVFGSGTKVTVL | 176 |
| TCN-526 (5084_C17) (antibody, V domains shown) VH: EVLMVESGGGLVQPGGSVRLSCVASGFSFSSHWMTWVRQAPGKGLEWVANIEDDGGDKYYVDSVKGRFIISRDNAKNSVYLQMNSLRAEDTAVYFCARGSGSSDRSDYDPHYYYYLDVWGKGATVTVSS VL: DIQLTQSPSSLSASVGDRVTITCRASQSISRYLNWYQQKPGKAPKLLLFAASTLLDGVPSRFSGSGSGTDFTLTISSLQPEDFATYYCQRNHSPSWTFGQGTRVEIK | 246 |

# get_value(readout='Trimeric HA Binding RLU', item= TCN-555 (5246_L16) (antibody, V domains shown) VH: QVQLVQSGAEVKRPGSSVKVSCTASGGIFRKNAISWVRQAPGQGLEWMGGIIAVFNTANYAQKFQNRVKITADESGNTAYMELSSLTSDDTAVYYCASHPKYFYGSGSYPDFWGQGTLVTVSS VL: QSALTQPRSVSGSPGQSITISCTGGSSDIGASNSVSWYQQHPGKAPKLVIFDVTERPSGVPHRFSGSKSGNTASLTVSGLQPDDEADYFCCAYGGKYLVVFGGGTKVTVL ) 2130

Repeat with TCN-533 (5256_A17) (antibody, V domains shown) VH: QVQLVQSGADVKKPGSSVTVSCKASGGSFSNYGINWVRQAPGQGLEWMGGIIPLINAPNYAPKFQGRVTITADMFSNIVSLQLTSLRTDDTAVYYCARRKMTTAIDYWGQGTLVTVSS VL: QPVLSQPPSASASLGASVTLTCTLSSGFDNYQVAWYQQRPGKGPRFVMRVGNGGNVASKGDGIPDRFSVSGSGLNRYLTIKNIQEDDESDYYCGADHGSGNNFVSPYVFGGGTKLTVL 10800
